Molecular target: AmgK (N-acetylmuramic acid/N-acetylglucosamine kinase) (Pseudomonas aeruginosa)
Sequence (Q9I5U1 whole entry): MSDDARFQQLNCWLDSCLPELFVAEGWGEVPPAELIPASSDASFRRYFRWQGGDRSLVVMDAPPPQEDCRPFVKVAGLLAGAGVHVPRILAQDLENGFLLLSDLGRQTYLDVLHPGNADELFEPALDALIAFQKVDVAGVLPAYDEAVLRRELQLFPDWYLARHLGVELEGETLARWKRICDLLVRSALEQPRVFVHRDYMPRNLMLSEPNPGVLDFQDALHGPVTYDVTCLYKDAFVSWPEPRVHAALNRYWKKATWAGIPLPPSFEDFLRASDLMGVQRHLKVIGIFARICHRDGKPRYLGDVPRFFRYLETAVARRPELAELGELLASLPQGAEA
Experiment: 2D-ITC, fit to ordered-sequential rate equation
Assay type: biochemical
measured-metric: pKi
Worth noting: pKi values are minus log10 of concentrations stated in mol/L.

(Q) Can you share its pKi? I mean this compound: Nc1ncnc2c1ncn2[C@@H]1O[C@H](COP(=O)(O)OP(=O)(O)O)[C@@H](O)[C@H]1O
(A) 3.16

meta.source: paper PMC11677264
